- Test system: Pseudomonas aeruginosa
- TEST: Bactericidal activity against Pseudomonas aeruginosa PAO1 preincubated for 1 min before addition of growth medium measured after 40 to 48 hrs
- Type: functional
MEASUREMENT LABEL: MBC

{"GIVEN SMILES": "CC(=O)O.CCCCCCCCNC1=NC(C)(C)NC(NCCCCCC)=N1", "TARGET ENTITY": "Pseudomonas aeruginosa", "RECORDED VALUE": "6.3 µg/mL"}
{"GIVEN SMILES": "CC(=O)O.CCCCCCCNC1=NC(C)(C)NC(NCc2ccc(C)cc2)=N1", "TARGET ENTITY": "Pseudomonas aeruginosa", "RECORDED VALUE": "25 µg/mL"}
{"GIVEN SMILES": "CC(=O)O.CCCCCCCCNC1=NC(C)(C)NC(NCc2ccc(C)cc2)=N1", "TARGET ENTITY": "Pseudomonas aeruginosa", "RECORDED VALUE": "12.5 µg/mL"}
{"GIVEN SMILES": "CCCCCCCCCCNC1=NC(C)(C)NC(NCCc2ccc(OC)cc2)=N1.Cl", "TARGET ENTITY": "Pseudomonas aeruginosa", "RECORDED VALUE": "3.1 µg/mL"}
{"GIVEN SMILES": "CC(=O)O.CCCCCCCCCNC1=NC(C)(C)NC(NCCc2ccccc2)=N1", "TARGET ENTITY": "Pseudomonas aeruginosa", "RECORDED VALUE": "12.5 µg/mL"}

---

- System: Staphylococcus aureus
- TEST: Bactericidal activity against methicillin-resistant Staphylococcus aureus 97-115 preincubated for 3 mins before addition of growth medium measured after 40 to 48 hrs
- Assay type: functional
Items are presented alongside their recorded MBC.

{"GIVEN SMILES": "CC(=O)O.CCCCCCCCCNC1=NC(C)(C)NC(Nc2ccccc2)=N1", "TARGET ENTITY": "Staphylococcus aureus", "VALUE UNITS": "µg/mL", "MBC": 25}
{"GIVEN SMILES": "CC(=O)O.CCCCCCCCCNC1=NC(C)(C)NC(NCc2ccccc2)=N1", "TARGET ENTITY": "Staphylococcus aureus", "VALUE UNITS": "µg/mL", "MBC": 6.3}
{"GIVEN SMILES": "CC(=O)O.CCCCCCCCNC1=NC(C)(C)NC(NCCCC)=N1", "TARGET ENTITY": "Staphylococcus aureus", "VALUE UNITS": "µg/mL", "MBC": 12.5}
{"GIVEN SMILES": "CC(=O)O.CCCCCCCCNC1=NC(C)(C)NC(NCc2ccccc2Cl)=N1", "TARGET ENTITY": "Staphylococcus aureus", "VALUE UNITS": "µg/mL", "MBC": 6.3}
{"GIVEN SMILES": "CC(=O)O.CCCCCCCCCCNC1=NC(C)(C)NC(NCc2ccc(OC)cc2)=N1", "TARGET ENTITY": "Staphylococcus aureus", "VALUE UNITS": "µg/mL", "MBC": 6.3}

---

- Test system: Staphylococcus aureus
- TEST: Bactericidal activity against Staphylococcus aureus 209PJC preincubated for 3 mins before addition of growth medium measured after 40 to 48 hrs
- Format: functional
MEASUREMENT LABEL: MBC

{"GIVEN SMILES": "CC(=O)O.CCCCCCCCNC1=NC(C)(C)NC(NCc2ccc(C(F)(F)F)cc2)=N1", "TARGET ENTITY": "Staphylococcus aureus", "RECORDED VALUE": "6.3 µg/mL"}
{"GIVEN SMILES": "CC(=O)O.CCCCCCCNC1=NC(C)(C)NC(NCc2ccc(C)cc2)=N1", "TARGET ENTITY": "Staphylococcus aureus", "RECORDED VALUE": "12.5 µg/mL"}
{"GIVEN SMILES": "CC(=O)O.CCCCCCCCCCNC1=NC(C)(C)NC(NCc2ccccc2)=N1", "TARGET ENTITY": "Staphylococcus aureus", "RECORDED VALUE": "6.3 µg/mL"}
{"GIVEN SMILES": "CC(=O)O.CCCCCCCCNC1=NC(C)(C)NC(NCCc2ccccc2)=N1", "TARGET ENTITY": "Staphylococcus aureus", "RECORDED VALUE": "12.5 µg/mL"}
{"GIVEN SMILES": "CC(=O)O.CCCCCCCCNC1=NC(C)(C)NC(NCc2ccc(Cl)cc2)=N1", "TARGET ENTITY": "Staphylococcus aureus", "RECORDED VALUE": "3.1 µg/mL"}
{"GIVEN SMILES": "CC(=O)O.CCCCCCCCCCNC1=NC(C)(C)NC(NCCc2ccccc2)=N1", "TARGET ENTITY": "Staphylococcus aureus", "RECORDED VALUE": "12.5 µg/mL"}
{"GIVEN SMILES": "CC(=O)O.CCCCCCCNC1=NC(C)(C)NC(NCCCCCCC)=N1", "TARGET ENTITY": "Staphylococcus aureus", "RECORDED VALUE": "6.3 µg/mL"}
{"GIVEN SMILES": "CC(=O)O.CCCCCCCCNC1=NC(C)(C)NC(NCCCCCC)=N1", "TARGET ENTITY": "Staphylococcus aureus", "RECORDED VALUE": "6.3 µg/mL"}
{"GIVEN SMILES": "CC(=O)O.CCCCCCCCCCNC1=NC(C)(C)NC(NCc2ccc(OC)cc2)=N1", "TARGET ENTITY": "Staphylococcus aureus", "RECORDED VALUE": "6.3 µg/mL"}
{"GIVEN SMILES": "CCCCCCCCCNC1=NC(C)(C)NC(NCc2ccc(OC)cc2)=N1.CS(=O)(=O)O", "TARGET ENTITY": "Staphylococcus aureus", "RECORDED VALUE": "6.3 µg/mL"}
{"GIVEN SMILES": "CC(=O)O.CCCCCCCCCCCCNC1=NC(C)(C)NC(NCC)=N1", "TARGET ENTITY": "Staphylococcus aureus", "RECORDED VALUE": "3.1 µg/mL"}
{"GIVEN SMILES": "CC(=O)O.CCCCCCCCCNC1=NC(C)(C)NC(NCc2ccc(C)cc2)=N1", "TARGET ENTITY": "Staphylococcus aureus", "RECORDED VALUE": "3.1 µg/mL"}
{"GIVEN SMILES": "N=C(NCCCCCCNC(=N)NC(=N)Nc1ccc(Cl)cc1)NC(=N)Nc1ccc(Cl)cc1.O=C(O)[C@H](O)[C@@H](O)[C@H](O)[C@H](O)CO", "TARGET ENTITY": "Staphylococcus aureus", "RECORDED VALUE": "62.5 µg/mL"}
{"GIVEN SMILES": "CC(=O)O.CCCCCCCCNC1=NC(C)(C)NC(NCc2ccccc2)=N1", "TARGET ENTITY": "Staphylococcus aureus", "RECORDED VALUE": "12.5 µg/mL"}
{"GIVEN SMILES": "CC(=O)O.CCCCCCCCNC1=NC(C)(C)NC(NCCCC)=N1", "TARGET ENTITY": "Staphylococcus aureus", "RECORDED VALUE": "12.5 µg/mL"}
{"GIVEN SMILES": "CC(=O)O.CCCCCCCCNC1=NC(C)(C)NC(NCc2ccc(C)cc2)=N1", "TARGET ENTITY": "Staphylococcus aureus", "RECORDED VALUE": "3.1 µg/mL"}
{"GIVEN SMILES": "CC(=O)O.CCCCCCCCCNC1=NC(C)(C)NC(NCc2ccccc2)=N1", "TARGET ENTITY": "Staphylococcus aureus", "RECORDED VALUE": "6.3 µg/mL"}
{"GIVEN SMILES": "CC(=O)O.CCCCCCCCNC1=NC(NCCCCC)=NC(C)(C)N1", "TARGET ENTITY": "Staphylococcus aureus", "RECORDED VALUE": "3.1 µg/mL"}

---

- System: Pseudomonas aeruginosa
- TEST: Bactericidal activity against Pseudomonas aeruginosa PAO1 preincubated for 1 min before addition of growth medium measured after 40 to 48 hrs
- Assay type: functional
MEASUREMENT LABEL: MBC (µg/mL)

{"GIVEN SMILES": "CC(=O)O.CCCCCCCNC1=NC(C)(C)NC(NCCCCCCC)=N1", "RECORDED VALUE": 3.1}
{"GIVEN SMILES": "CC(=O)O.CCCCCCCCNC1=NC(NCCCCC)=NC(C)(C)N1", "RECORDED VALUE": 6.3}
{"GIVEN SMILES": "CC(=O)O.CCCCCCCCNC1=NC(C)(C)NC(NCc2ccc(C(F)(F)F)cc2)=N1", "RECORDED VALUE": 12.5}
{"GIVEN SMILES": "CC(=O)O.CCCCCCCCCNC1=NC(C)(C)NC(NCc2ccccc2)=N1", "RECORDED VALUE": 6.3}
{"GIVEN SMILES": "CC(=O)O.CCCCCCCCCCNC1=NC(C)(C)NC(NCCc2ccccc2)=N1", "RECORDED VALUE": 25}
